assay: Cabotegravir and rilpivirine concentrations in plasma and CSF by HPLC-MS/MS
Format: in vivo, HIV-infected adults
measurementContext: human, CSF/plasma, intramuscular, Total CSF/total plasma (%), Q4W, n = 3; paired samples; median (minimum–maximum)
Measured Kp, listed per entry.

- molecule: "Cc1cc(/C=C/C#N)cc(C)c1Nc1ccnc(Nc2ccc(C#N)cc2)n1"
  Kp: 0.0107
- molecule: "C[C@H]1CO[C@@H]2Cn3cc(C(=O)NCc4ccc(F)cc4F)c(=O)c(O)c3C(=O)N12"
  Kp: 0.003

###

assay: Cabotegravir and rilpivirine concentrations in plasma and CSF by HPLC-MS/MS
Format: in vivo, HIV-infected adults
measurementContext: human, CSF/plasma, intramuscular, Total CSF/total plasma (%), Q8W, n = 13; paired samples; median (minimum–maximum)

- molecule: "C[C@H]1CO[C@@H]2Cn3cc(C(=O)NCc4ccc(F)cc4F)c(=O)c(O)c3C(=O)N12 [cabotegravir]"
  Kp: 0.0034
- molecule: "Cc1cc(/C=C/C#N)cc(C)c1Nc1ccnc(Nc2ccc(C#N)cc2)n1 [rilpivirine]"
  Kp: 0.0132
